# target desc: HIV-1 protease (Q7S mutant form) (Human immunodeficiency virus type 1 group M subtype B, UniProt P04585, Q495S)
# Construct: made in house
# assay explanation: HIV-1 Protease RET assay
# Format: biochemical
# run parameters: Ave. Ki (nM), RET assay, Q7S enzyme, Morrison tight binding fit
# Description: Ki's for the inhibitors of HIV-1 protease were determined using a resonance energy transfer (RET) assay. […] This enzyme is first partially purified as inclusion bodies from cell lysate. […] The commercially available peptide substrate (Molecular Probes Cat. # H-2930) RE(EDANS)SQNYPIVQK(DABCYL)R is used to assess activity and Ki's. This peptide is cleaved quantitatively by HIV-1 Pr at the Tyr-Pro bond. […]
A collection of molecules and their measured Ki
Report the value in nM with no unit label.

Cc1ccccc1CNC(=O)[C@H]1N(C(=O)[C@@H](O)[C@H](Cc2ccccc2)NC(=O)CCCO)CSC1(C)C; 1.3
Cc1ccccc1CNC(=O)[C@H]1N(C(=O)[C@@H](O)[C@H](Cc2ccccc2)NC(=O)CC(F)(F)F)CSC1(C)C; 1.4
Cc1c(O)cccc1C(=O)N[C@@H](Cc1ccccc1)[C@H](O)C(=O)N1COC(C)(C)[C@H]1C(=O)N[C@H]1CCc2ccccc21; 0.13
Cc1c(O)cccc1C(=O)N[C@@H](Cc1ccccc1)[C@H](O)C(=O)N1CSC(C)(C)[C@H]1C(=O)N[C@@H]1CCCc2sccc21; 0.49
Cc1c(O)cccc1C(=O)N[C@@H](Cc1ccccc1)[C@H](O)C(=O)N1CSC(C)(C)[C@H]1C(=O)NCc1cc2ccccc2[nH]1; 0.99
CC1(C)SCN(C(=O)[C@@H](O)[C@H](Cc2ccccc2)NC(=O)c2cccc3c2CCN3)[C@@H]1C(=O)N[C@H]1CCOc2ccccc21; 0.82
Cc1c(O)cccc1C(=O)N[C@@H](Cc1ccccc1)[C@H](O)C(=O)N1CSC(C)(C)[C@H]1C(=O)NCc1ccc2c(c1)CCO2; 0.49
CCCNC(=O)[C@@H]1CC(F)(F)CN1C(=O)[C@@H](O)[C@H](Cc1ccccc1)NC(=O)COc1c(C)cccc1C; 3.6

# query: Ki of entry `Cc1c(O)cccc1C(=O)N[C@@H](Cc1ccccc1)[C@H](O)C(=O)N1CSC(C)(C)[C@H]1C(=O)N[C@@H]1CCSc2ccccc21` 0.3

Quick one: Ki for `Cc1c(O)cccc1C(=O)N[C@@H](Cc1ccccc1)[C@H](O)C(=O)N1CSC(C)(C)[C@H]1C(=O)NCc1ccc2c(c1)OC(F)(F)O2` ? 0.19

----------
# target desc: HIV-1 protease (Q7S mutant form) (Human immunodeficiency virus type 1 group M subtype B, UniProt P04585, Q495S)
# Construct: made in house
# assay explanation: HIV-1 Protease RET assay
# Assay type: biochemical
# run parameters: Ave. Ki (nM), RET assay, Q7S enzyme, Morrison tight binding fit
reported endpoint: Ki (nM)
Provide the reading as a plain figure in nM.

Study these solved cases before continuing.
Cc1ccccc1CNC(=O)NC(Cc1ccccc1)C(O)C(=O)N1CSC(C)(C)[C@H]1C(=O)NCc1ccncc1 (stereo partly shown) [Example B66]; 5.2
Cc1c(O)cccc1C(=O)N[C@@H](Cc1ccccc1)[C@H](O)C(=O)N1CSC(C)(C)[C@H]1C(=O)NCc1csc2ccc(Cl)cc12 [Example A24]; 0.52

Dear colleague, I am looking for the recorded Ki of the following molecule: Cc1ccccc1C(=O)N[C@@H](Cc1ccccc1)[C@H](O)C(=O)N1CSC(C)(C)[C@H]1C(=O)NCc1cccs1 [Example B79] 0.78

What value of Ki has been reported for the following molecule? CCCC(=O)N[C@@H](Cc1ccccc1)[C@H](O)C(=O)N1CSC(C)(C)[C@H]1C(=O)NCc1ccccc1C [Example B20] 2.1

Source: patent US7094909B2
